- System: U2OS
- ASSAY SUMMARY: Multiplex assay against U2OS
- Type: toxicity, cell-based
- MEASUREMENT PARAMETERS: human, 24 h, 10 µM, compound concentration 10 uM, replicate 2
Just so you know, the groups by Population Tubulin-Different-Phenotype (%) go like this: low: < 4%; medium: ≥ 4% and < 9%; high: ≥ 9%

* CN(C)C(=O)Cn1cc(-c2ccc(-c3nnc4ccccn34)cc2)cn1 | low
* CCn1c(-c2nc3cc(C(=O)N4CCCC(N)C4)ccc3n2C)cc2ccccc21.Cl (centres undefined) | high
* COc1cc(Nc2ncc3c(n2)-c2ccc(Cl)cc2C(c2c(F)cccc2OC)=NC3)ccc1C(=O)O [ALISERTIB] | medium
* CCc1nn2c(C)cc(C)nc2c1Cc1ccc(-c2nnc(C3CCNCC3)o2)cc1 | high
* COc1ccc2[nH]c(I)c(CCNC(C)=O)c2c1 [IODOMELATONIN] | low
* Cc1cc(O)c(-c2ccc([C@@H](C)CN(C)C)cc2)c2c1[nH]c(=O)c1sccc12 | high
* CC(C)(C)c1ccc(CSc2cnn(C(C)(C)C)c(=O)c2Cl)cc1 [PYRIDABEN] | low
* CN1CCC(C(=O)c2cccc(NC(=O)c3c(F)cc(F)cc3F)n2)CC1 | high
* N[C@](CC1c2ccccc2Oc2ccccc21)(C(=O)O)[C@H]1C[C@@H]1C(=O)O | low
* CCCCCCNC(=O)Nc1ccc(S(=O)(=O)Nc2ccc(CCNC[C@H](O)COc3ccc(O)cc3)cc2)cc1 [L-755507] | medium
* O=c1ccc2ccc(OCCCCN3CCN(c4cccc5sccc45)CC3)cc2[nH]1 [BREXPIPRAZOLE] | high
* COc1cc(C(=O)N2CC[C@@H](O)[C@@H](N)C2)cc2nc(-c3cc4ccccc4n3CC3CC3)n(C)c12.Cl | high
* O=C(NCCNCC(O)COc1ccc(O)cc1)N1CCOCC1.O=C(NCCNCC(O)COc1ccc(O)cc1)N1CCOCC1.O=C(O)/C=C/C(=O)O (centres undefined) [XAMOTEROL FUMARATE] | medium
* S=C(NCCCc1c[nH]cn1)NCCCN(Cc1ccc(Cl)c(Cl)c1)c1ccc(Br)cn1 | high
* O=c1nc2[nH]c3ccccc3nc-2c(=O)[nH]1 [ALLOXAZINE] | low
* CC(C)C[C@H](CO)Nc1nc(S[C@@H](C)c2ccccc2)nc2nc(N)sc12 [AZD-8797] | medium
* Cc1cc(=O)n(C)c2cc(N3C(=O)CC[C@H](NS(=O)(=O)CC(C)C)[C@H]3c3ccc(Cl)cc3)ccc12 | high
* CSc1nc(NC2CCCC2)c([N+](=O)[O-])c(NC2CCCC2)n1 [GS-39783] | medium
* COc1cc2nc(N3CCN(C(=O)COc4c(OC)cccc4C(C)C)CC3)nc(N)c2cc1OC.Cl.Cl | high
* COc1cc(OC2CCN(C(C)=O)CC2)ccc1C(=O)N1CCC(N2C(=O)OCc3ccccc32)CC1 | medium
* C[C@H](NC(=O)CNC(=O)c1cccc(Cl)c1)c1ccccc1 | low
* Cc1sc2c(c1C)C(c1ccc(Cl)cc1)=N[C@H](CC(=O)OC(C)(C)C)c1nnc(C)n1-2 | low
* COc1c(Nc2ccc(S(C)(=O)=O)nc2C)ncnc1OC1CCN(C(=O)OC(C)C)CC1 [ADP-597] | low
* COC(c1ccccc1)(c1ccccc1)[C@H](Oc1nc(C)cc(C)n1)C(=O)O [AMBRISENTAN] | medium

###

- Tested on: HEK-293T
- ASSAY SUMMARY: Multiplex assay against HEK293T
- Type: toxicity, cell-based
- MEASUREMENT PARAMETERS: human, 24 h, 10 µM, compound concentration 10 uM, replicate 1
# maps each entry to its Population Healthy Nuclei (%)
MEASUREMENT LABEL: Population Healthy Nuclei (%)

• CC(C)(C)c1ccc(CSc2cnn(C(C)(C)C)c(=O)c2Cl)cc1 = 79%
• CSc1nc(NC2CCCC2)c([N+](=O)[O-])c(NC2CCCC2)n1 = 78%
• COc1cc2nc(N3CCN(C(=O)c4ccco4)CC3)nc(N)c2cc1OC.Cl [PRAZOSIN HYDROCHLORIDE] = 77%
• Cn1cc(C(=O)OCC2CCN(CCNS(C)(=O)=O)CC2)c2ccccc21 = 74%
• COc1ccc2[nH]c(I)c(CCNC(C)=O)c2c1 = 77%

###

- System: HEK-293T
- ASSAY SUMMARY: Multiplex assay against HEK293T
- Type: toxicity, cell-based
- MEASUREMENT PARAMETERS: human, 12 h, 1 µM, compound concentration 1 uM, replicate 1
Non-standard residues stand in square brackets, D forms with d. Residues, ends and D or L forms follow the SMILES beside them.
Each entry below carries its recorded Population Mitotic Cells (%).
MEASUREMENT LABEL: Population Mitotic Cells (%)

- CN1C[C@H](C(=O)N[C@]2(C)O[C@@]3(O)[C@@H]4CCCN4C(=O)[C@H](Cc4ccccc4)N3C2=O)C[C@@H]2c3cccc4[nH]cc(c34)C[C@H]21.CS(=O)(=O)O [DIHYDROERGOTAMINE MESYLATE]: 61
- Cc1cc(=O)n(C)c2cc(N3C(=O)CC[C@H](NS(=O)(=O)CC(C)C)[C@H]3c3ccc(Cl)cc3)ccc12: 56
- C[C@@H]1CC(=O)Nc2cccc(-c3ccc4c(c3)c(-c3cnn(C)c3)nn4C)c2N1: 63
- Cc1c(Cc2ccc3ccccc3n2)c2cc(F)ccc2n1CC(=O)O: 57
- Cc1cc(-c2ccc3c(c2)CC[C@H]3N2CC3(CCN(C(=O)Cc4cn5cc(C)sc5n4)CC3)C2)ncn1: 63
- COc1c(Nc2ccc(S(C)(=O)=O)nc2C)ncnc1OC1CCN(C(=O)OC(C)C)CC1: 70
- CC(C)C[C@H](CO)Nc1nc(S[C@@H](C)c2ccccc2)nc2nc(N)sc12: 60
- Cn1cc(C(=O)OCC2CCN(CCNS(C)(=O)=O)CC2)c2ccccc21: 60
- CN(C)C/C=C/C(=O)Nc1ccc(C(=O)N2CCCC(Nc3ncc(Cl)c(-c4c[nH]c5ccccc45)n3)C2)cc1 (stereo unspecified): 53
- COc1cc(C(=O)N2CC[C@@H](O)[C@@H](N)C2)cc2nc(-c3cc4ccccc4n3CC3CC3)n(C)c12.Cl: 51
- O=c1ccc2ccc(OCCCCN3CCN(c4cccc5sccc45)CC3)cc2[nH]1: 55
- CC(C)C[C@@H]1NC(=O)[C@@H](C(C)C)NC(=O)[C@@H]2CCCN2C(=O)[C@@H](CC(=O)O)NC(=O)[C@@H](Cc2c[nH]c3ccccc23)NC1=O [BQ-123] (cyclo(L[dW][dD]P[dV])): 53
- CCCCCCNC(=O)Nc1ccc(S(=O)(=O)Nc2ccc(CCNC[C@H](O)COc3ccc(O)cc3)cc2)cc1: 64
- O=c1nc2[nH]c3ccccc3nc-2c(=O)[nH]1: 72
- CN(C)C(=O)Cn1cc(-c2ccc(-c3nnc4ccccn34)cc2)cn1: 68
- COCCn1c(C)c(C)s/c1=N\C(=O)C1C(C)(C)C1(C)C: 62

###

- Test system: Fibroblast
- ASSAY SUMMARY: Multiplex assay against human fibroblast
- Type: toxicity, cell-based
- MEASUREMENT PARAMETERS: 12 h, 1 µM, compound concentration 1 uM, replicate 2
Recorded Population Apoptotic (%), one value per entry.
MEASUREMENT LABEL: Population Apoptotic (%)

- COc1cc2nc(N3CCN(C(=O)COc4c(OC)cccc4C(C)C)CC3)nc(N)c2cc1OC.Cl.Cl: 36%
- CCc1nn2c(C)cc(C)nc2c1Cc1ccc(-c2nnc(C3CCNCC3)o2)cc1: 45%
- CN1CCC(C(=O)c2cccc(NC(=O)c3c(F)cc(F)cc3F)n2)CC1: 40%
- COc1cc(C(=O)N2CC[C@@H](O)[C@@H](N)C2)cc2nc(-c3cc4ccccc4n3CC3CC3)n(C)c12.Cl: 48%
- Cl.Cl.OCCOCCN1CCN(C(c2ccccc2)c2ccc(Cl)cc2)CC1 (configuration not stated) [HYDROXYZINE HYDROCHLORIDE]: 51%
- CCCCC[C@H](O)/C=C/[C@H]1[C@H](O)CC(=O)[C@@H]1CCCCCCC(=O)O [ALPROSTADIL]: 43%
- CN1C[C@H](C(=O)N[C@]2(C)O[C@@]3(O)[C@@H]4CCCN4C(=O)[C@H](Cc4ccccc4)N3C2=O)C[C@@H]2c3cccc4[nH]cc(c34)C[C@H]21.CS(=O)(=O)O [DIHYDROERGOTAMINE MESYLATE]: 47%

###

- Test system: Fibroblast
- ASSAY SUMMARY: Multiplex assay against human fibroblast
- Format: toxicity, cell-based
- MEASUREMENT PARAMETERS: 24 h, 10 µM, compound concentration 10 uM, replicate 2
Non-standard residues stand in square brackets, D forms with d. Residues, ends and D or L forms follow the SMILES beside them.
Listed below: Population Fragmented Nuclei (%) values for each entry.
MEASUREMENT LABEL: Population Fragmented Nuclei (%)

* CCn1c(-c2nc3cc(C(=O)N4CCCC(N)C4)ccc3n2C)cc2ccccc21.Cl (stereo not drawn) | 30
* Cl.Cl.OCCOCCN1CCN(C(c2ccccc2)c2ccc(Cl)cc2)CC1 (stereo not drawn) [HYDROXYZINE HYDROCHLORIDE] | 29
* CCCCCCNC(=O)Nc1ccc(S(=O)(=O)Nc2ccc(CCNC[C@H](O)COc3ccc(O)cc3)cc2)cc1 [L-755507] | 38
* Nc1nc(CC(=O)Nc2ccc(CCNC[C@H](O)c3ccccc3)cc2)cs1 [MIRABEGRON] | 29
* Cc1ccc(OCC(O)C(C)NC(C)C)c2c1CCC2.Cl (stereo not drawn) | 35
* COc1cc(Nc2ncc3c(n2)-c2ccc(Cl)cc2C(c2c(F)cccc2OC)=NC3)ccc1C(=O)O [ALISERTIB] | 45
* CC(C)C[C@@H]1NC(=O)[C@@H](C(C)C)NC(=O)[C@@H]2CCCN2C(=O)[C@@H](CC(=O)O)NC(=O)[C@@H](Cc2c[nH]c3ccccc23)NC1=O [BQ-123] (cyclo(L[dW][dD]P[dV])) | 27
* CC(C)(O)C(=O)N1CCN(c2ccc(C(F)(F)F)c(C3=C(c4c[nH]c5ccccc45)C(=O)NC3=O)c2)CC1 | 27
